Each recorded value in this set is attributed to patent US4372948A.

# System: level of blood sugar
# PROTOCOL: Anti-hyperglycemia activity (reduction of blood sugar level)
# Type: in vivo, rat (Wistar, streptozotocin)
# PARTICULARS: oral, 300 mg/kg, 6 hrs.
ASSAY_METRIC: Reduced level of blood sugar after 6 hrs. (mg/dL)

INSERT INTO measurements (compound, numeric_readout) VALUES
  ('O=C(Oc1ccccc1)c1ccc(NC2O[C@H](CO)[C@@H](O[C@@H]3O[C@H](CO)[C@@H](O)[C@H](O)[C@H]3O)[C@H](O)[C@H]2O)cc1 (some centres unmarked) [Compound 9, phenyl p-aminobenzoate-N-cellobioside]', 121),
  ('C[C@@H]1OC(Nc2ccc(CC(=O)O)cc2)[C@H](O)[C@H](O)[C@H]1O (some centres unmarked) [Compound 29]', 71),
  ('O=C(OCc1ccccc1)c1cccc(NC2O[C@H](CO)[C@@H](O[C@@H]3O[C@H](CO)[C@H](O)[C@H](O)[C@H]3O)[C@H](O)[C@H]2O)c1 (some centres unmarked) [Compound 12, benzyl m-aminobenzoate-N-lactoside]', 95),
  ('C[C@@H]1OC(Nc2ccc(C(N)=O)cc2)[C@H](O)[C@H](O)[C@H]1O (stereo partly drawn) [Compound 5, p-aminobenzoic acid amide-N-L-rhamnoside]', 128),
  ('NC(=O)c1cccc(NC2O[C@H](CO)[C@@H](O[C@@H]3O[C@H](CO)[C@@H](O)[C@H](O)[C@H]3O)[C@H](O)[C@H]2O)c1 (some centres unmarked) [Compound 2, m-aminobenzoic acid amide-N-cellobioside]', 103);

----------
# reported inhibition in vivo at 1000 mg/kg; entries follow
# Tested on: pyrexia (Saccharomyces cerevisiae)
# PROTOCOL: Anti-pyrexia activity (yeast-induced)
# Format: in vivo
# PARTICULARS: Rattus norvegicus, oral, read-out: Rate of inhibiting pyrexia (I.R.)
# Method: Following the method of Winter et al. (1961), an aqueous dispersion of 20% by weight of Saccharomyces cerevisiae was subcutaneously injected into groups of rats, each group consisting of 6 animals, and after 10-hour fasting, 1000 mg/kg of each of the present compounds was orally administered to the rat as a solution of dispersion in distilled water, and then the rectal temperature of the rat was measured at a predetermined interval of time to find the lowest temperature. […]
ASSAY_METRIC: inhibition in vivo at 1000 mg/kg (%)

INSERT INTO results (compound, numeric_readout) VALUES
  ('C[C@@H]1OC(Nc2ccc(C(=O)OCC3CCCCC3)cc2)[C@H](O)[C@H](O)[C@H]1O (stereo partly drawn) [Compound 25]', 54),
  ('O=C(OCc1ccccc1)c1cccc(NC2O[C@H](CO)[C@@H](O[C@@H]3O[C@H](CO)[C@H](O)[C@H](O)[C@H]3O)[C@H](O)[C@H]2O)c1 (stereo partly drawn) [Compound 12, benzyl m-aminobenzoate-N-lactoside]', 17),
  ('NC(=O)c1cccc(NC2O[C@H](CO)[C@@H](O[C@@H]3O[C@H](CO)[C@@H](O)[C@H](O)[C@H]3O)[C@H](O)[C@H]2O)c1 (stereo partly drawn) [Compound 2, m-aminobenzoic acid amide-N-cellobioside]', 36);

----------
# reported Reduction of cholesterol level after 3 hrs.; entries follow
# Tested on: total cholesterol
# PROTOCOL: Anti-hyperlipemia activity, total cholesterol in blood
# Format: in vivo, rabbit (Japanese white male)
# PARTICULARS: oral, 300 mg/kg once, 3 hrs.; negative = raising
ASSAY_METRIC: Reduction of cholesterol level after 3 hrs. (mg/dL)

INSERT INTO results (compound, system_under_test, numeric_readout) VALUES
  ('O=C(Oc1ccccc1)c1ccc(NC2O[C@H](CO)[C@@H](O[C@H]3O[C@H](CO)[C@@H](O[C@H]4O[C@H](CO)[C@@H](O)[C@H](O)[C@H]4O)[C@H](O)[C@H]3O)[C@H](O)[C@H]2O)cc1 (some centres unmarked) [Compound 10, phenyl p-aminobenzoate-N-maltotrioside]', 'total cholesterol', -5),
  ('O=C(OC1CCCCC1)c1ccccc1NC1C[C@H](O)[C@H](O)CO1 (some centres unmarked)', 'total cholesterol', 0),
  ('NC(=O)c1ccc(NC2O[C@H](CO)[C@@H](O)[C@H](O)[C@@H]2O)cc1 (stereo partly drawn) [Compound 4, p-aminobenzoic acid amide-N-D-mannoside]', 'total cholesterol', 0),
  ('NC(=O)c1ccc(NC2OC[C@@H](O)[C@H](O)[C@H]2O)cc1 (stereo partly drawn) [Compound 3, p-aminobenzoic acid amide-N-D-xyloside]', 'total cholesterol', 3),
  ('O=C(OCc1ccccc1)c1cccc(NC2O[C@H](CO)[C@@H](O[C@@H]3O[C@H](CO)[C@H](O)[C@H](O)[C@H]3O)[C@H](O)[C@H]2O)c1 (some centres unmarked) [Compound 12, benzyl m-aminobenzoate-N-lactoside]', 'total cholesterol', 7),
  ('O=C(OC1CCCCC1)c1ccc(NC2O[C@H](CO)[C@@H](O[C@@H]3O[C@H](CO)[C@@H](O)[C@H](O)[C@H]3O)[C@H](O)[C@H]2O)cc1 (some centres unmarked)', 'total cholesterol', 3),
  ('O=C(OCC1CCCCC1)c1ccc(NC2OC[C@@H](O)[C@@H](O)[C@H]2O)cc1 (some centres unmarked)', 'total cholesterol', -1),
  ('O=C(Oc1ccccc1)c1cccc(NC2O[C@H](CO)[C@@H](O)[C@H](O)[C@@H]2O)c1 (stereo partly drawn) [Compound 7, phenyl m-aminobenzoate-N-D-mannoside]', 'total cholesterol', -2),
  ('C[C@@H]1OC(Nc2ccc(C(N)=O)cc2)[C@H](O)[C@H](O)[C@H]1O (stereo partly drawn) [Compound 5, p-aminobenzoic acid amide-N-L-rhamnoside]', 'total cholesterol', -1),
  ('C[C@@H]1OC(Nc2cccc(C(=O)OCC3CCCCC3)c2)[C@@H](O)[C@H](O)[C@@H]1O (some centres unmarked)', 'total cholesterol', 6),
  ('O=C(OC1CCCCC1)c1ccc(NC2O[C@H](CO)[C@@H](O[C@H]3O[C@H](CO)[C@@H](O[C@H]4O[C@H](CO)[C@@H](O)[C@H](O)[C@H]4O)[C@H](O)[C@H]3O)[C@H](O)[C@H]2O)cc1 (some centres unmarked)', 'total cholesterol', -2);
